pIC50: −log10 of the molar value.
Hi! I'm sharing some pIC50 results obtained with Sodium-dependent serotonin transporter (Homo sapiens, UniProt P31645).
Sequence (P31645 whole entry): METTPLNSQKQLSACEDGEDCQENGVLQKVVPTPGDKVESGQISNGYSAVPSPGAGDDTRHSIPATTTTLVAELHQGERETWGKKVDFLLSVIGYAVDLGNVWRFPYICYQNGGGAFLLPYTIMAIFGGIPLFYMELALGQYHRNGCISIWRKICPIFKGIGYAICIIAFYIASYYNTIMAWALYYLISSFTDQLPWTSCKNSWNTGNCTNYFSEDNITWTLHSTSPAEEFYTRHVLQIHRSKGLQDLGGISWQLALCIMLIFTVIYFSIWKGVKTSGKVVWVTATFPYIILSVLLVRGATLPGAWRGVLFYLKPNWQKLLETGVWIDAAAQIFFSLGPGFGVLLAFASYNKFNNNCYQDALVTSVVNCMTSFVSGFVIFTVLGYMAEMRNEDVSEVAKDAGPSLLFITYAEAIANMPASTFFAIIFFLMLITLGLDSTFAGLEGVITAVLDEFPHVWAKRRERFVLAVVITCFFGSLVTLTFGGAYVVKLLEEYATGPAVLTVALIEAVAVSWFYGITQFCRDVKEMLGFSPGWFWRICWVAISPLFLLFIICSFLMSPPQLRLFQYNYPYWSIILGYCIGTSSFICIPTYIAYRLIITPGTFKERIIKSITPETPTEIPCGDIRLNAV
parameter.measured: pIC50

> print(dat)
                                  mol.smiles                              assay.target  parameter.measured  measured
 1  Fc1cc2c(c(OCCNCCc3c[nH]c4ccccc34)c1)OCCC2  Sodium-dependent serotonin transporter (Homo sapiens, UniProt P31645)               pIC50      7.37
 2   Fc1ccc2[nH]cc(CCCNCCOc3cccc4ccoc34)c2c1  Sodium-dependent serotonin transporter (Homo sapiens, UniProt P31645)               pIC50      7.55
 3  Fc1ccc2[nH]cc(CCCNCCOc3cccc4c3CCCC4)c2c1  Sodium-dependent serotonin transporter (Homo sapiens, UniProt P31645)               pIC50      6.52
 4  Fc1cc2c(c(OCCNCCCc3c[nH]c4ccc(F)cc34)c1)OCCC2  Sodium-dependent serotonin transporter (Homo sapiens, UniProt P31645)               pIC50      8.15
 5  Fc1ccc2[nH]cc(CCCNCCOc3cccc4ncccc34)c2c1  Sodium-dependent serotonin transporter (Homo sapiens, UniProt P31645)               pIC50      7.14
 6  Fc1cc2c(c(OCCNCCCc3c[nH]c4ccc(F)cc34)c1)OCC2  Sodium-dependent serotonin transporter (Homo sapiens, UniProt P31645)               pIC50      7.21
 7   Fc1ccc2[nH]cc(CCNCCOc3cccc4c3OCCO4)c2c1  Sodium-dependent serotonin transporter (Homo sapiens, UniProt P31645)               pIC50      7.07
 8   c1ccc2c(OCCNCCCc3c[nH]c4ccccc34)cccc2c1  Sodium-dependent serotonin transporter (Homo sapiens, UniProt P31645)               pIC50      5.66
 9  Fc1cc(OCCNCCCc2c[nH]c3ccc(F)cc23)c2c(c1)OCCO2  Sodium-dependent serotonin transporter (Homo sapiens, UniProt P31645)               pIC50      7.61
10       COc1ccc(F)cc1OCCNCCc1c[nH]c2ccccc12  Sodium-dependent serotonin transporter (Homo sapiens, UniProt P31645)               pIC50      6.60
11  Fc1ccc2[nH]cc(CCCNCCOc3cccc4nccnc34)c2c1  Sodium-dependent serotonin transporter (Homo sapiens, UniProt P31645)               pIC50      7.70
12  Fc1ccc2[nH]cc(CCCNCCOc3cc(Cl)cc4[nH]cnc34)c2c1  Sodium-dependent serotonin transporter (Homo sapiens, UniProt P31645)               pIC50      8.35
13  c1ccc2c(CCCNCCOc3cccc4[nH]ccc34)c[nH]c2c1  Sodium-dependent serotonin transporter (Homo sapiens, UniProt P31645)               pIC50      6.81
14        Fc1ccc2[nH]cc(CCCNCCOc3ccccc3)c2c1  Sodium-dependent serotonin transporter (Homo sapiens, UniProt P31645)               pIC50      5.42
15  Fc1ccc2[nH]cc(CCCNCCOc3cccc4[nH]ccc34)c2c1  Sodium-dependent serotonin transporter (Homo sapiens, UniProt P31645)               pIC50      7.61
16  c1ccc2c(CCCCNCCOc3cccc4[nH]ccc34)c[nH]c2c1  Sodium-dependent serotonin transporter (Homo sapiens, UniProt P31645)               pIC50      6.06
17  Fc1cc2c(c(OCCNCCc3c[nH]c4ccc(F)cc34)c1)OCCC2  Sodium-dependent serotonin transporter (Homo sapiens, UniProt P31645)               pIC50      7.06
18  Fc1cc2c(c(OCCNCCc3c[nH]c4ccc(F)cc34)c1)OCC2  Sodium-dependent serotonin transporter (Homo sapiens, UniProt P31645)               pIC50      6.60
19  Fc1ccc2[nH]cc(CCCNCCOc3cccc4c3OCCO4)c2c1  Sodium-dependent serotonin transporter (Homo sapiens, UniProt P31645)               pIC50      8.20
20   COc1ccc(F)cc1OCCNCCCc1c[nH]c2ccc(F)cc12  Sodium-dependent serotonin transporter (Homo sapiens, UniProt P31645)               pIC50      7.69
21      COc1ccccc1OCCNCCCc1c[nH]c2ccc(F)cc12  Sodium-dependent serotonin transporter (Homo sapiens, UniProt P31645)               pIC50      7.70
22   Fc1ccc2[nH]cc(CCCNCCOc3cccc4c3OCC4)c2c1  Sodium-dependent serotonin transporter (Homo sapiens, UniProt P31645)               pIC50      8.01
